- Target Desc: D(3) dopamine receptor (Homo sapiens, UniProt P35462)
- Sequence (P35462 whole entry): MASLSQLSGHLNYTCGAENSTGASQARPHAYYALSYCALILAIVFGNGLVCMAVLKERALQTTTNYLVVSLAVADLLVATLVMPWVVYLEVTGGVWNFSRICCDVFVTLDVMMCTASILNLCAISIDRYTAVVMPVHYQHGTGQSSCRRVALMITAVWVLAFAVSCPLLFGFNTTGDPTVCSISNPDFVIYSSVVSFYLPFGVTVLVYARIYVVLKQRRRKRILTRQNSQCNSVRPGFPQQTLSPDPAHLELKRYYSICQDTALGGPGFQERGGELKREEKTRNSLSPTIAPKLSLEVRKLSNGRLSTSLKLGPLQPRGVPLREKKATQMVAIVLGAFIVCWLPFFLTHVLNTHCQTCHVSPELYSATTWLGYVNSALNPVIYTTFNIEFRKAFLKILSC
- Assay Remarks: Binding affinity measured at the Dopamine receptor D3 by the inhibition of [3H]YM-09151-2 binding to human recombinant CCL 1.3 cells using unlabeled 7-OH-DPAT for nonspecific binding.

Substance Smiles	Ki (nM)
O=c1c(CO)coc2cc(OCCCN3CCC(c4noc5cc(F)ccc45)CC3)ccc12	5.4

====

- Target Desc: UniProtKB P18090
- Sequence (P18090 whole entry): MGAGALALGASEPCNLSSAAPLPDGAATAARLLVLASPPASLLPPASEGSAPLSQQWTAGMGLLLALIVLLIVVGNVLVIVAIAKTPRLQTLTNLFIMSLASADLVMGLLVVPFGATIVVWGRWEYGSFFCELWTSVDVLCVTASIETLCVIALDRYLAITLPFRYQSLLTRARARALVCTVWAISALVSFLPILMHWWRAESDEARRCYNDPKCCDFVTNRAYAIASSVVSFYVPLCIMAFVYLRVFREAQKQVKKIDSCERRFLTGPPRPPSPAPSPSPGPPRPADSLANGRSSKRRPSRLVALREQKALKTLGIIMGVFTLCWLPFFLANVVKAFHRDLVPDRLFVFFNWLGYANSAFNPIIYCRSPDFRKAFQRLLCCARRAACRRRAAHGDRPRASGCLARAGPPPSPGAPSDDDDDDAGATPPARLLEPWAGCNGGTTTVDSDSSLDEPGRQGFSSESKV

Compound	Ki / µM
Cc1nc2n(c(=O)c1CCN1CCC(c3noc4cc(F)ccc34)CC1)CCCC2 [RISPERIDONE]	22

====

- Target Desc: 5-hydroxytryptamine receptor 2A (Rattus norvegicus, UniProt P14842)
- Sequence (P14842 whole entry): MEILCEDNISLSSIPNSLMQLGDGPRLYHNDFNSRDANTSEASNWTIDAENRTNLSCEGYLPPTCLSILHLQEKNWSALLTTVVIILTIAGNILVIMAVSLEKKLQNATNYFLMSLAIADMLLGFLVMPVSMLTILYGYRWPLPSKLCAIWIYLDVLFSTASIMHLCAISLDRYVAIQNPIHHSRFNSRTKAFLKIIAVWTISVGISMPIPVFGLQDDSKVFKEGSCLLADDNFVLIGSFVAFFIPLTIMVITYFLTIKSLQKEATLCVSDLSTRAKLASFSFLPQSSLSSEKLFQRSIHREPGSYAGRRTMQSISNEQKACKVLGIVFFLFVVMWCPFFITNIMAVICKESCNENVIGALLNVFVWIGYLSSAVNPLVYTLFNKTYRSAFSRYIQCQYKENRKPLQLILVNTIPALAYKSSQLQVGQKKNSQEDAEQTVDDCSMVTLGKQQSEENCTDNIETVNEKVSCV

Substance Smiles	Target Desc	IC50 [nM]
O=c1cc(CO)oc2cc(OCCCN3CCC(c4noc5cc(F)ccc45)CC3)ccc12	5-hydroxytryptamine receptor 2A (Rattus norvegicus, UniProt P14842)	7.2
O=C(c1ccc(F)cc1)C1CCN(CCCOc2ccc3c(=O)c(CO)coc3c2)CC1	5-hydroxytryptamine receptor 2A (Rattus norvegicus, UniProt P14842)	32.9
Cc1coc2cc(OCCCN3CCC(C(=O)c4ccc(F)cc4)CC3)ccc2c1=O	5-hydroxytryptamine receptor 2A (Rattus norvegicus, UniProt P14842)	25.3
O=c1ccoc2cc(OCCCN3CCC(c4noc5cc(F)ccc45)CC3)ccc12	5-hydroxytryptamine receptor 2A (Rattus norvegicus, UniProt P14842)	8.6
